target: Voltage-gated inwardly rectifying potassium channel KCNH2 (Homo sapiens) (UniProt Q12809); experiment: KCNH2 potassium channel function modulators, cell-based (AID 376); conditions: hERG-expressing cells, channel activity single-concentration screen; concentration not given here;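 note: 0% = buffer alone and 100% = reference blocker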
Sequence (Q12809 whole entry, looked up): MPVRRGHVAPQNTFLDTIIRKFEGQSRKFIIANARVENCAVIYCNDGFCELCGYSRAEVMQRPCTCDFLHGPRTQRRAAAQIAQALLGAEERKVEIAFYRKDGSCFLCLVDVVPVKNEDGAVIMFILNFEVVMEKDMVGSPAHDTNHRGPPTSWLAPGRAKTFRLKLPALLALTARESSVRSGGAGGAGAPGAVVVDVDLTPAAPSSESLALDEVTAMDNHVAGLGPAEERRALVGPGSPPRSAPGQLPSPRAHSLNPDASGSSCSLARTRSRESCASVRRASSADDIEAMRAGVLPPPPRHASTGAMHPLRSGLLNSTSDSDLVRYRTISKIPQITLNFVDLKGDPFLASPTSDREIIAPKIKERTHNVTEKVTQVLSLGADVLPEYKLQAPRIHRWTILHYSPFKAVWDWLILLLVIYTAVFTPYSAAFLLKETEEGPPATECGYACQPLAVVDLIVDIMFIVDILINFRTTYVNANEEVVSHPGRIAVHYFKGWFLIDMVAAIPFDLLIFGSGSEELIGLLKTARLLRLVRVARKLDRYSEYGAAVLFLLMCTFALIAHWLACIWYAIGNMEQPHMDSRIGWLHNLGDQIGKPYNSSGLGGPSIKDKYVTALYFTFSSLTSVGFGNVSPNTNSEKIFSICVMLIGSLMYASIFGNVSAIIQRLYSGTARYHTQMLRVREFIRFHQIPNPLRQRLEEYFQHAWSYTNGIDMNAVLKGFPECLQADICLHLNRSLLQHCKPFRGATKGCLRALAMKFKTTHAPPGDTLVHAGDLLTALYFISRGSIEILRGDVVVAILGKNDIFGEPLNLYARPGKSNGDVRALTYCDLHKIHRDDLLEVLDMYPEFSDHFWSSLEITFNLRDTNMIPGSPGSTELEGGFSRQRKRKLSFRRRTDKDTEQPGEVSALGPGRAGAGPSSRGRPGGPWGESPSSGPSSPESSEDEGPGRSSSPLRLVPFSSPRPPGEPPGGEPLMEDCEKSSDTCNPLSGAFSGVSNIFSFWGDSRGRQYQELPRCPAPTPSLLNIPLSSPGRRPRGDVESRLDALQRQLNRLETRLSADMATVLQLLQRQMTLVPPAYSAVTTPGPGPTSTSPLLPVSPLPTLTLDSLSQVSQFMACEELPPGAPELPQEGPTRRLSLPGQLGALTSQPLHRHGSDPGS
Hit rate of the full screen: of about 2,000 compounds, about 250 (12%) were called active. Cut-off read from the data, not from the text of the source: active = hERG blockade below about -20% or above about 20%; inactive = in between. The sample holds actives, similar compounds and a random draw of the others, so the mix is not that of the screen.
Outcome codes: class 1 for active, class 0 for inactive

[[record]]
molecule = "Cc1nc2ccccc2nc1N1CCCC1"
class_name = "class 0"

[[record]]
molecule = "O=C(O)CCCN1CCCCC1"
class_name = "class 0"

[[record]]
molecule = "O=C(O)CCCSc1ccccc1"
class_name = "class 0"

[[record]]
molecule = "Clc1ccc(CN2CCCN(Cc3ccc(Cl)cc3)C2c2cc3ccccc3c3ccccc23)cc1"
class_name = "class 0"

[[record]]
molecule = "CCC1CC(=O)N(SCC(N)C(=O)O)C1=O (configuration not stated)"
class_name = "class 0"

[[record]]
molecule = "O=C(NC1(C(=O)O)CC1c1ccccc1)c1ccccc1 (configuration not stated)"
class_name = "class 0"

[[record]]
molecule = "O=C(O)c1ccncc1.O=C(O)c1ccncc1.[Cl][Pt]([Cl])([Cl])[Cl]"
class_name = "class 0"

[[record]]
molecule = "Cc1cc(N2CCCCC2)nc2ccc(Cc3ccc4nc(N5CCCCC5)cc(C)c4c3)cc12"
class_name = "class 1"

[[record]]
molecule = "O=C(O)Cc1cccc2c(=O)cc(-c3ccccc3)oc12"
class_name = "class 0"

[[record]]
molecule = "N=C(N)SCc1cccc(-c2nc3ccccc3c(=O)o2)c1"
class_name = "class 0"

[[record]]
molecule = "Cc1cc(N2CCOCC2)nc2ccc(Cc3ccc4nc(N5CCOCC5)cc(C)c4c3)cc12"
class_name = "class 1"

[[record]]
molecule = "CC(C)(C)c1ccc(CN2CCN(C(c3ccccc3)c3ccc(Cl)cc3)CC2)cc1 (configuration not stated)"
class_name = "class 1"


====

target: Voltage-gated inwardly rectifying potassium channel KCNH2 (Homo sapiens); test: KCNH2 potassium channel function modulators, cell-based (AID 376); conditions: hERG-expressing cells, channel activity single-concentration screen; concentration not given here;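 note: 0% = buffer alone and 100% = reference blocker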
The campaign covered roughly 2,000 compounds. About 250 (12%) were called active. What follows is part of a selection rich in actives, with near analogues and random picks from the rest.
Known hERG blockade of a selection of compounds
Measured property: hERG blockade (%)

[[record]]
compound = "[N-]=[N+]=NC1C(O)C(CO)OC1n1cnc2c(N)ncnc21 (stereo not drawn)"
experimental_value = -1.39

[[record]]
compound = "CC(C)(C)COS(=O)OCC(C)(C)C"
experimental_value = -13.1

[[record]]
compound = "O=C(c1nc2ccc([N+](=O)[O-])cc2[nH]c1=O)C(O)c1ccc2c(c1)OCO2 (stereo not drawn)"
experimental_value = -14.1

[[record]]
compound = "NCCSCc1ccccc1Cl"
experimental_value = 6.42

[[record]]
compound = "CSc1ccc2c(c1)N(CCCN(C)C)c1ccccc1S2"
experimental_value = 90.6

[[record]]
compound = "O=C(O)c1ccc([N+]2=Cn3c(nc4ccccc43)C2)cc1"
experimental_value = 6.37

[[record]]
compound = "Cc1ccc(S(=O)(=O)NCc2cccc([N+](=O)[O-])c2)cc1"
experimental_value = 14.6

[[record]]
compound = "c1ccc2c[n+](Cc3ccnc4ccccc34)ccc2c1"
experimental_value = 16.2

[[record]]
compound = "Cc1ccc2c(c1)NC(c1ccc(C(=O)O)cc1)c1cccn1-2 (stereo not drawn)"
experimental_value = -13.1

[[record]]
compound = "Cc1c2cnccc2c(C)c2c1c1ccccc1n2CCOC(=O)c1ccccc1"
experimental_value = 17.4

[[record]]
compound = "NCC1OC(n2cnc3c(N)ncnc32)CC1O (stereo not drawn)"
experimental_value = -23.5

[[record]]
compound = "COc1cc(NCCC2CCCCN2)c2ncccc2c1 (stereo not drawn)"
experimental_value = 7.01

[[record]]
compound = "CC(=O)n1c(COS(C)(=O)=O)nc2ccccc21"
experimental_value = 4.86

[[record]]
compound = "NC(CSCc1ccc(I)cc1)C(=O)O (stereo not drawn)"
experimental_value = 8.02

[[record]]
compound = "Cc1ncc(CSC(=N)N)n1Cc1ccccc1"
experimental_value = -16.6

[[record]]
compound = "Cc1ncc(CSc2ccccc2N)c(CO)c1O"
experimental_value = -7.6

[[record]]
compound = "O=C(O)CCNCC(=O)O"
experimental_value = 2.22

[[record]]
compound = "CC(SCc1ccccc1)C(=O)O (stereo not drawn)"
experimental_value = 3.31

[[record]]
compound = "Nc1ccc(N=Nc2c(S(=O)(=O)O)cc3ccccc3c2S(=O)(=O)O)cc1"
experimental_value = 5.01

[[record]]
compound = "Nc1ccc(N(S(=O)(=O)c2ccccc2)S(=O)(=O)c2ccccc2)c(Cl)c1"
experimental_value = 0.845

[[record]]
compound = "SC1CCCN(Cc2ccccc2)C1 (stereo not drawn)"
experimental_value = 10.8

[[record]]
compound = "NN=C1CC(=O)NC(=O)N1"
experimental_value = -9.37

[[record]]
compound = "CC1CC2C3CCC4=CC(=O)C=CC4(C)C3(Cl)C(Cl)CC2(C)C1(O)C(=O)COP(=O)(O)O (stereo not drawn)"
experimental_value = 10.3

[[record]]
compound = "Cc1c2ccccc2c(CSC(=N)N)c2ccccc12"
experimental_value = 103

[[record]]
compound = "NC1=C(O)C(=O)C(c2c[nH]c3ccc(OCc4ccccc4)cc23)O1 (stereo not drawn)"
experimental_value = 12.8

[[record]]
compound = "Cc1cccc(C(=O)O)c1CC1NCCC2c3ccccc3NC12 (stereo not drawn)"
experimental_value = 32.1

[[record]]
compound = "CC(=N[O-])C(C)=N[O-].CC(=N[O-])C(C)=N[O-].CC(=N[O-])C(C)=N[O-].CC(=N[O-])C(C)=N[O-].[Cu].[Cu]"
experimental_value = 17.9

[[record]]
compound = "Cc1nc2ccccc2nc1-c1ccc(N=[N+]([O-])c2ccc(-c3nc4ccccc4nc3C)cc2)cc1"
experimental_value = 1.15

[[record]]
compound = "CC(C(=O)c1ccccc1)C(c1ccccc1)N1CCOCC1 (stereo not drawn)"
experimental_value = -13.1

[[record]]
compound = "NC(CSCc1ccccc1)C(=O)O (stereo not drawn)"
experimental_value = -2.53

[[record]]
compound = "C[N+](C)(C)c1ncnc2c1ncn2C1CC(O)C(CO)O1 (stereo not drawn)"
experimental_value = -5.95

[[record]]
compound = "O=C(O)c1ccc(NS(=O)(=O)Cc2ccccc2)cc1"
experimental_value = 7.65

[[record]]
compound = "CN(C)CCCN1c2ccccc2Sc2cnccc21"
experimental_value = 73.5

[[record]]
compound = "O=S(=O)(O)c1cc(N=[N+]([O-])c2cc(S(=O)(=O)O)c3ccccc3c2)cc2ccccc12"
experimental_value = 20.3

[[record]]
compound = "O=C(O)COc1c(Cl)cc(Cl)c2cccnc12"
experimental_value = -8.13

[[record]]
compound = "COc1ccc(OC)c(-c2cc(C(=O)O)c3cc4ccccc4cc3n2)c1"
experimental_value = -16.1

[[record]]
compound = "COc1ccc(-c2nc(N)c3ncn(C4OC(CO)C(O)C4O)c3n2)cc1 (stereo not drawn)"
experimental_value = -8.39

[[record]]
compound = "O=C1c2ccccc2C(=O)N1c1ccc(Cc2ccc(N3C(=O)c4ccccc4C3=O)cc2)cc1"
experimental_value = -0.893

[[record]]
compound = "Cc1ccc(S(=O)(=O)N2CCC(C(=O)O)(c3ccccc3)CC2)cc1"
experimental_value = -1.68

[[record]]
compound = "NCCSS(=O)(=O)CCN"
experimental_value = 3.89

[[record]]
compound = "c1cncc(CSc2ncnc3nc[nH]c23)c1"
experimental_value = -11.9

[[record]]
compound = "CN(C)CCCn1cnc2cc(Cl)c(Cl)cc21"
experimental_value = 5.34

[[record]]
compound = "CN(C)CCCN1c2ccc(O)cc2Sc2ccc(Cl)cc21"
experimental_value = 62.7

[[record]]
compound = "O=CN1CCN(CC(O)CN2CCCCC2)CC1 (stereo not drawn)"
experimental_value = -4.54

[[record]]
compound = "O=c1[nH][nH]c(=S)c(=O)[nH]1"
experimental_value = 4.97

[[record]]
compound = "CN(C)CCCn1c2ccccc2c2cnccc21"
experimental_value = 90.4

[[record]]
compound = "C=C(C)COc1ccc2c(c1)CCC1C2CCC2(C)C(=O)C(=NO)CC12 (stereo not drawn)"
experimental_value = 0.877

[[record]]
compound = "Cc1ccc(S(=O)(=O)Oc2cc(S(=O)(=O)O)cc3cc(S(=O)(=O)O)cc(N)c23)cc1"
experimental_value = 11.5


Data provenance is PubChem BioAssay AID376.
